Target: EGFR (Homo sapiens, UniProt P00533)
Experiment: 125I-EGF radioligand saturation binding on human bone marrow mesenchymal progenitor cells
Measurement Kind: Kd (nM)
Give the quantity in nM, number only.

Recorded Kd (binder EGF (protein, 125I-labeled EGF) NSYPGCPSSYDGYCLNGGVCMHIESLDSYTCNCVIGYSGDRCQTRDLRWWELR ): 0.0349
